- assay.info: Intrinsic clearance in human liver microsomes
- Assay type: ADME, Microsome
Here the recorded CLH is given for each entry.
Please state the figure in mL·min/g; there is no need to write the unit.

Some solved entries appear below for comparison.
molecule | result.units | CLH
O=C(Cc1ccc(-c2ccc(OCCN3CCN(C(=O)C4CCC4)CC3)cc2)cn1)NCc1ccccc1 | mL·min/g | 67.4
O=C(Cc1ccc(-c2ccc(OCCN3CCN(C(=O)C4CC4)CC3)cc2)cn1)NCc1ccccc1 | mL·min/g | 36
O=C(Cc1ccc(-c2ccc(OCCN3CCN(C(=O)CC4CC4)CC3)cc2)cn1)NCc1ccccc1 | mL·min/g | 49.8
O=C(Cc1ccc(-c2ccc(OCCN3CCN(C(=O)[C@@H]4C[C@@H]4F)CC3)cc2)cn1)NCc1ccccc1 | mL·min/g | 26.6

Now look at this one.
Q) Please look up its CLH: O=C(Cc1ccc(-c2ccc(OCCN3CCOCC3)cc2)cn1)NCc1ccccc1 [TIRBANIBULIN]
A) 31.4

====

- Test system: Ramos
- assay.info: Antiproliferative activity against human Ramos cells assessed as inhibition of cell proliferation measured after 72 hrs by MTT assay
- Assay type: functional, cell-based
// bucketize IC50: lower segment: < 9 nM; middle segment: ≥ 9 nM and < 30 nM; upper segment: ≥ 30 nM

Reference set (5 entries):
compound | assigned.label
O=C(Cc1ccc(-c2ccc(OCCN3CCN(C(=O)[C@H]4C[C@@H]4F)CC3)cc2)cn1)NCc1ccccc1 | middle segment
O=C(Cc1ccc(-c2ccc(OCCN3CCN(C(=O)CC4CC4)CC3)cc2)cn1)NCc1ccccc1 | lower segment
CC1(C)C2CN(CCOc3ccc(-c4ccc(CC(=O)NCc5ccccc5)nc4)cc3)CC21 (centres undefined) | upper segment
CC(C)(C)N1CCN(CCOc2ccc(-c3ccc(CC(=O)NCc4ccccc4)nc3)cc2)CC1 | upper segment
O=C(Cc1ccc(-c2ccc(OCCN3CCC4(CC3)CC4)cc2)cn1)NCc1ccccc1 | upper segment

Q) Lab note: sort O=C(Cc1ccc(-c2ccc(OCCCN3CC4CCC(C3)O4)cc2)cn1)NCc1ccccc1 into the matching IC50 band.
A) lower segment

Q) Lab note: sort O=C(Cc1ccc(-c2ccc(OCCN3CC4CCC(C3)O4)cc2)cn1)NCc1ccccc1 into the matching IC50 band.
A) lower segment

Q) Lab note: sort O=C(Cc1ccc(-c2ccc(OCCN3CCN(C(=O)C4CC4(F)F)CC3)cc2)cn1)NCc1ccccc1 (centres undefined) into the matching IC50 band.
A) upper segment

Q) Lab note: sort O=C(Cc1ccc(-c2ccc(OCCCCN3C[C@@H]4C[C@H]3CO4)cc2)cn1)NCc1ccccc1 into the matching IC50 band.
A) middle segment

====

- assay.info: Oral bioavailability in Sprague-Dawley rat at 5 mg/kg measured up to 24 hrs by LC/MS/MS analysis
- Format: ADME, organism-based
- reported.conditions: in vivo
property.measured: bioavailability (%)
Please state the figure in %; there is no need to write the unit.

Some solved entries appear below for comparison.
compound | endpoint.value
O=C(Cc1ccc(-c2ccc(OCCN3CCOCC3)cc2)cn1)NCc1ccccc1 [TIRBANIBULIN] | 34.9
O=C(Cc1ccc(-c2ccc(OCCN3CCN(C(=O)C4CC4)CC3)cc2)cn1)NCc1ccccc1 | 52.2
O=C(Cc1ccc(-c2ccc(OCCN3CCN(C(=O)CC4CC4)CC3)cc2)cn1)NCc1ccccc1 | 24.3

Q) Please look up its bioavailability: O=C(Cc1ccc(-c2ccc(OCCN3CCN(C(=O)[C@@H]4C[C@@H]4F)CC3)cc2)cn1)NCc1ccccc1
A) 79.9

Data provenance is ChEMBL document CHEMBL5033996.
